Where these numbers come from: PubChem BioAssay (NCATS)

experiment_summary: Nrf2 qHTS screen for inhibitors: Validation (AID 493153)
test_context: A549 ARE-Fluc reporter, 18-24 h; measured here: cytotoxicity max response
Inconclusive results are not listed.
// values below are reported viability change
Numbers only; they are read as %.

>  <compound>
NC(C(=O)N[C@@H]1C(=O)N2C(C(=O)O)=C(Cl)CS[C@H]12)c1ccccc1 (stereo partly specified)

>  <observable>
viability change

>  <unit_symbol>
%

>  <experimental_value>
1.5

$$$$

# viability change lookup, item "Nc1ccc(-c2ccc3ccccc3n2)cc1"
-6.75

Which viability change is listed for "NC(N)=[N+]1CCc2ccccc2C1" ?
6.22

I'd like to know its viability change. The compound in question is "c1ccc2c(c1)CCC[C@H]2Nc1nc2ccccc2[nH]1"
-8.96

###

experiment_summary: qHTS for differential inhibitors of proliferation of Plasmodium falciparum line HB3 (AID 1886);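 note: parasites grown with compound for 72 h before SYBR Green readout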; note: potency is the fitted concentration of half-maximal effect
test_context: Plasmodium falciparum HB3 proliferation inhibition; series mostly up to 28.7 µM
Inconclusive results are not listed. Calls of active or inactive are those of the source. The call rests on the fitted dose curve; in most records, active means well fitted curve in the direction sought with a large enough effect; inconclusive means small, poorly fitted or top-dose-only effect, or another doubt; inactive means no such curve, though single readings can be large or run the other way.
observable: Potency

>  <compound>
COc1ccc(NC(=O)c2ccc(-c3ccc(-c4noc(C)n4)cc3C)cc2)cc1N1CCN(C)CC1

>  <Potency>
2.82 µM (active)

$$$$
>  <compound>
N#Cc1cc2nc(O)c(O)nc2cc1[N+](=O)[O-]

>  <Potency>
inactive

$$$$
>  <compound>
CC(=O)[C@H]1CCC2C3CC=C4C[C@@H](OS(=O)(=O)O)CC[C@]4(C)C3CC[C@@]21C (some centres not stated)

>  <Potency>
inactive

$$$$
>  <compound>
O=c1onc2n1-c1cc(Br)ccc1OC2

>  <Potency>
inactive

$$$$
>  <compound>
Cc1ccc([N+](=O)[O-])cc1S(=O)(=O)N(C)C

>  <Potency>
inactive

$$$$
>  <compound>
CC(=O)C(C)=O

>  <Potency>
inactive

$$$$
>  <compound>
C/C(=C\c1ccc(C(=O)O)cc1)c1ccc2c(c1)C(C)(C)CCC2(C)C

>  <Potency>
inactive

$$$$
>  <compound>
NC1CONC1=O (configuration not stated)

>  <Potency>
inactive

$$$$
>  <compound>
Cc1cc2c(cc1Cl)N(C(=O)Nc1ccnc3ccccc13)CC2

>  <Potency>
inactive

$$$$
>  <compound>
CCCCCCCCCC(=O)NC(CN1CCOCC1)[C@H](O)c1ccccc1 (some centres not stated)

>  <Potency>
8.91 µM (active)

$$$$

Which value of Potency has been reported for "C[N+](C)(C)CC=O" in the records?
inactive

Consider the compound "O=c1ccn([C@@H]2O[C@H](COP(=O)(O)OP(=O)(O)O)[C@@H](O)[C@H]2O)c(=O)[nH]1" and give its measured Potency.
inactive

Fill in: Potency of "O=C(O)C1=CCCN(CCON=C(c2ccccc2)c2ccccc2)C1" is ___
inactive

Could you share which Potency value was measured for "COc1ccc(-c2ccc(N)[n+](CCCC(=O)O)n2)cc1" ?
inactive

Would you kindly share the measured Potency for "C[C@@H](NCCc1ccc(O)cc1)[C@@H](O)c1ccc(O)cc1" ?
inactive

Could you share which Potency value was measured for "Nc1ccc(-c2nc3ccc(-c4nc5ccc(N)cc5[nH]4)cc3[nH]2)cc1" ?
0.794 µM (active)

Requested field: Potency. Item: "Cn1c(=O)[nH]c2ncn(C)c2c1=O"
12.6 µM (active)
